Reported melting point is given for each of the following compounds.

{"compound": "Cc1cc(=O)[nH]c(-c2cccc(N)c2)n1", "result": "212 to 214 °C"}
{"compound": "CC(=O)c1ccc(N2CCOC2=O)cc1", "result": "149 to 151 °C"}

Fill in: melting point of `O=C(CBr)c1ccc(S(=O)(=O)N2CCCC2)cc1` is ___ 121 to 123 °C

Now the same for `COc1cc(C(=O)O)cc(OC)c1OCC(N)=O` 249 to 253 °C

Now the same for `CC(C)c1nnc(S)[nH]1` 156 to 158 °C

Now the same for `CC(C)c1nn(-c2ccccc2)c(Cl)c1C=O` 53 to 55 °C

Now the same for `O=C(O)CCSc1ccc2c(c1)OCCO2` 87 to 89 °C

###

test-readout: melting point

Worked set:
{"molecule": "N#Cc1ccccc1NC(=O)c1ccccn1", "result": "136 to 138 °C"}
{"molecule": "CN1CCN(C(=O)CC#N)CC1", "result": "118 to 120 °C"}
{"molecule": "Brc1nnc(Br)s1", "result": "104 to 106 °C"}
{"molecule": "COc1ccccc1-c1cc(N)n(-c2ccccc2)n1", "result": "119 to 121 °C"}
{"molecule": "CSc1ncc(C(N)=O)c(N)n1", "result": "250 to 252 °C"}
{"molecule": "Nc1nc(Cc2ccccc2)c(-c2ccccc2)s1", "result": "139 to 141 °C"}
{"molecule": "O=C(O)CCCOc1ccccc1F", "result": "76 to 78 °C"}
{"molecule": "CCn1nc(C(=O)O)ccc1=O", "result": "203 to 205 °C"}

Attention now shifts to the item below.
Fill in: melting point of `NC(CCCN1CCCCC1)=NO` is ___ 89 to 91 °C

###

Reported melting point is given for each of the following compounds.

{"compound": "COc1cc(CCl)cc(Br)c1OC", "melting point": "60 to 62 °C"}
{"compound": "N#CC1(CS(N)(=O)=O)CCCC1", "melting point": "72 to 74 °C"}
{"compound": "Cc1cc(Oc2ccc(C(=O)O)cn2)ccc1C(C)C", "melting point": "122 to 124 °C"}
{"compound": "Cc1nc2ccccc2nc1Br", "melting point": "102 to 104 °C"}
{"compound": "O=C(O)c1ccc(/C=C/c2ccc3ccccc3n2)cc1", "melting point": "263 to 265 °C"}

Fill in: melting point of `Cc1nc(-c2ccsc2)sc1C(=O)O` is ___ 235 to 237 °C

Now the same for `Cc1ccc2[nH]cnc2c1C` 169 to 171 °C

Now the same for `NS(=O)(=O)c1ccc2c(c1)CCC(=O)N2` 263 to 265 °C

Now the same for `O=C(O)C1=NN(Cc2ccccc2)C(=O)CC1` 179 to 181 °C

Now the same for `O=C(O)c1ccc(S(=O)(=O)Cl)s1` 119 to 121 °C

Now the same for `O=C1C=CC(=O)N1c1ccccc1Sc1ccccc1` 51 to 53 °C

Now the same for `O=C(Nc1ccc2c(c1)OCO2)C(Cl)(Cl)Cl` 99 to 101 °C

Now the same for `COC(=O)C(=O)CC(=O)c1cc(Cl)ccc1Cl` 150 to 152 °C

Now the same for `O=C(O)c1cccc(Nc2ccccc2)c1` 129 to 131 °C

Now the same for `CCc1nn(C)c2[nH]nc(N)c12` 123 to 125 °C

Now the same for `O/N=C(/Cc1nc2ccccc2n1C(F)F)c1ccccc1` 165 to 167 °C

Now the same for `COc1cc(-c2noc(CCl)n2)ccc1C` 73 to 75 °C

Now the same for `O=C(O)c1nn(-c2ccc(F)cc2F)cc1O` 203 to 205 °C

Now the same for `NC(=O)CCNC(=O)OCc1ccccc1` 164 to 166 °C

###

Reported melting point is given for each of the following compounds.

{"compound": "CC1(c2ccccc2)CC(=O)NC(=O)C1", "result": "150 to 152 °C"}
{"compound": "COc1ccc(CC(N)=O)cc1F", "result": "173 to 175 °C"}
{"compound": "O=C(O)CCN1C(=O)CSc2ccccc21", "result": "144 to 146 °C"}
{"compound": "CC(C)(C)OC(=O)Nc1cc2c(cc1N)OCCO2", "result": "119 to 121 °C"}
{"compound": "Oc1cccc(-n2cncn2)c1", "result": "181 to 183 °C"}

Fill in: melting point of `CC1(C)Cc2ccccc2C1=O` is ___ 41 to 43 °C

Now the same for `CC(=O)Nc1ccc(Cl)cc1N` 141 to 143 °C

Now the same for `Fc1ccc(-c2nnc(Cl)c3ccccc23)cc1` 186 to 188 °C

Now the same for `O=C(CN1C(=O)CCC1=O)c1ccccc1F` 154 to 156 °C

Now the same for `NCc1ccc(NC(=O)CCCOc2ccccc2)cc1` 96 to 98 °C

Now the same for `Nc1nc(-c2cccc(Cl)c2)cs1` 125 to 127 °C

Now the same for `COc1ccc(-c2nn(-c3ccccc3)cc2C=CC(=O)O)cc1OC` 162 to 164 °C

Now the same for `COC(=O)c1cc(N)c(OC)c(OC)c1` 127 to 129 °C

Now the same for `Nn1c(S)nnc1C1CCOCC1` 177 to 179 °C

Now the same for `O=C(O)C1(N2CCOCC2)CCC1` 209 to 211 °C

Now the same for `Cc1ccccc1-n1c(S)nnc1-c1ccncc1` 280 to 282 °C

Now the same for `CCN(CC)S(=O)(=O)c1ccc(Oc2ccc(C=O)cc2OC)c([N+](=O)[O-])c1` 134 to 136 °C

Now the same for N#Cc1cc2c([nH]c1=O)CCC(c1ccccc1)C2 (configuration not stated) 279 to 281 °C

Now the same for `Cc1ccc(S(=O)(=O)Cl)cc1C` 36 to 38 °C

Now the same for `Cc1cc(C(=O)CCl)c(C)n1-c1ccc(S(N)(=O)=O)cc1` 241 to 243 °C

Now the same for `Nc1ncc2c(n1)CCN(Cc1ccccc1)C2` 179 to 181 °C

Now the same for `Clc1ccc(-c2nnc(Br)s2)cc1` 135 to 137 °C

Now the same for O=C(O)C1CCCN1S(=O)(=O)c1cccs1 (configuration not stated) 99 to 101 °C

###

Reported melting point is given for each of the following molecules.

Fill in: melting point of `COc1cc(C(=O)O)ccc1OC(C)=O` is ___ 144 to 146 °C

###

Reported melting point is given for each of the following compounds.

{"compound": "Nc1ccc(CC(=O)N2CCN(c3ccccc3)CC2)cc1", "result": "201 to 203 °C"}
{"compound": "Cc1nc(-c2ccccc2N)no1", "result": "77 to 79 °C"}
{"compound": "CC(C)(C)c1ccc(C(=O)CC#N)cc1", "result": "78 to 80 °C"}

Fill in: melting point of CC1CC(C)CN(S(=O)(=O)Cl)C1 (stereo not drawn) is ___ 41 to 43 °C

Now the same for `Cc1ccc(C#N)nc1Br` 130 to 132 °C

Now the same for `CC(C)N(C)S(=O)(=O)c1ccc(NC(=O)CCl)cc1` 118 to 120 °C

Now the same for CC(NO)c1ccc(F)cc1 (stereo not drawn) 74 to 76 °C

Now the same for `CSc1cc2c(cc1C=O)OCCO2` 112 to 114 °C

Now the same for `COc1cc(OC)c(NC(=O)c2cc3ccccc3cc2O)cc1Cl` 199 to 201 °C

Now the same for `Cc1cccc(-c2nonc2N)c1` 77 to 79 °C

Now the same for `CCN(C1CC1)S(=O)(=O)c1c(C)n[nH]c1C` 97 to 99 °C

Now the same for `O=[N+]([O-])c1ccccc1Nc1ccc(F)cc1F` 79 to 81 °C

###

Reported melting point is given for each of the following compounds.

Fill in: melting point of `O=C(O)C1(c2ccc(F)cc2F)CCC1` is ___ 64 to 66 °C

Now the same for `CS(=O)(=O)c1ccc(Cl)c(S(N)(=O)=O)c1` 228 to 230 °C

Now the same for `O=C(O)c1ccc(N2C(=O)CSC2=S)cc1` 281 to 283 °C

Now the same for NC(=O)C1CCCN(C(=O)CCl)C1 (configuration not stated) 124 to 126 °C

Now the same for CCOC(=O)C(O)c1nccn1Cc1ccccc1 (configuration not stated) 134 to 136 °C

Now the same for `O=C1Nc2c(cc(F)cc2[N+](=O)[O-])C1=O` 176 to 178 °C

Now the same for `O=[N+]([O-])c1cc(S(=O)(=O)Cl)c(F)cc1F` 46 to 48 °C

Now the same for `CCc1c(C(=O)O)cnn1-c1ccc(Br)cc1` 209 to 211 °C
